Provide the recorded kon for the entries that follow.
# assay-target: SARS-COV-2 RBD extracellular domain expressed with a C-terminal myc-myc-hexahistidine tag (SARS-CoV-2)
# experiment: SPR (Biacore), mAb captured by anti-human Fc, RBD-mmH in solution, 25 C
Give bare numbers, in M⁻¹ s⁻¹.

Okay, here is my list. What is kon for each of these?
1. mAb14284 (antibody, V domains shown) VH: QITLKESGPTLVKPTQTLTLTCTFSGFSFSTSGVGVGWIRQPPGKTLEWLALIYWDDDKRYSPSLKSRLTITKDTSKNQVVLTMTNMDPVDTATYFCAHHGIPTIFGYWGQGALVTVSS VL: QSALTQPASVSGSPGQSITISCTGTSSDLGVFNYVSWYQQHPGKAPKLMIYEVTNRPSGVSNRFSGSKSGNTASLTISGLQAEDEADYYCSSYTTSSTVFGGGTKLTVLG
2. mAb13459 (antibody, V domains shown) VH: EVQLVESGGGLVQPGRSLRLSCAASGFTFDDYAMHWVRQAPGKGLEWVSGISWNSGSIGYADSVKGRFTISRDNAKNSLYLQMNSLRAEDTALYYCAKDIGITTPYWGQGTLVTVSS VL: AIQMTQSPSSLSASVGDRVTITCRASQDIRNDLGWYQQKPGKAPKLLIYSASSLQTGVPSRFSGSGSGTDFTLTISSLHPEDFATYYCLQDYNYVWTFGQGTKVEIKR

1: 666000; 2: 693000
